target: Carbonic anhydrase 12 (Homo sapiens, UniProt O43570); test: Inhibition of recombinant human carbonic anhydrase 12 incubated for 10 mins prior to testing measured for 5 to 10 secs by phenol red-based stopped-flow CO2 hydration assay
Sequence (O43570 whole entry): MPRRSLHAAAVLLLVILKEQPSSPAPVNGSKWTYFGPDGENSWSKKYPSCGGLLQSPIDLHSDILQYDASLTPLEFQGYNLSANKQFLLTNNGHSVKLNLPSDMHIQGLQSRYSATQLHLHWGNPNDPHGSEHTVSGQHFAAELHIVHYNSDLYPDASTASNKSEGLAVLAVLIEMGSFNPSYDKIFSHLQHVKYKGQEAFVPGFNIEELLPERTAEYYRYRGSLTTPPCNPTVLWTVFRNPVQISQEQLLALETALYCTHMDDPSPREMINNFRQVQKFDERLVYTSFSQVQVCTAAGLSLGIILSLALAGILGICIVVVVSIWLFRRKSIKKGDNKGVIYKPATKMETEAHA
pKi: −log10 of the molar value.
OBSERVATION TYPE: pKi

# count of solved cases: 4
- MOLECULE SMILES: "NS(=O)(=O)c1ccc(-c2nnc(SCC(=O)c3ccc(Br)cc3)o2)cc1"
  TARGET: "Carbonic anhydrase 12 (Homo sapiens, UniProt O43570)"
  REPORTED MEASUREMENT: 6.20
- MOLECULE SMILES: "NS(=O)(=O)c1ccc(-c2nnc(SCC(=O)Nc3ccc([N+](=O)[O-])cc3)o2)cc1"
  TARGET: "Carbonic anhydrase 12 (Homo sapiens, UniProt O43570)"
  REPORTED MEASUREMENT: 6.13
- MOLECULE SMILES: "NS(=O)(=O)c1ccc(-c2nnc(SCC(=O)Nc3ccc(Br)cc3)o2)cc1"
  TARGET: "Carbonic anhydrase 12 (Homo sapiens, UniProt O43570)"
  REPORTED MEASUREMENT: 6.12
- MOLECULE SMILES: "Cc1ccc(C(=O)CSc2nnc(-c3ccc(S(N)(=O)=O)cc3)o2)cc1"
  TARGET: "Carbonic anhydrase 12 (Homo sapiens, UniProt O43570)"
  REPORTED MEASUREMENT: 6.64

[A] NS(=O)(=O)c1ccc(-c2nnc(SCC(=O)c3ccccc3)o2)cc1
[B] NS(=O)(=O)c1ccc(-c2nnc(SCC(=O)c3ccc(Cl)cc3)o2)cc1
[C] COc1ccc(C(=O)CSc2nnc(-c3ccc(S(N)(=O)=O)cc3)o2)cc1
Which order do these items take when sorted by rising pKi? List them. The response must list the labels following the requested ordering.
C, B, A
(C: 5.44, B: 6.08, A: 6.58)

[I] NS(=O)(=O)c1ccc(-c2nnc(SCC(=O)Nc3ccc(Cl)cc3)o2)cc1
[II] Cc1ccc(NC(=O)CSc2nnc(-c3ccc(S(N)(=O)=O)cc3)o2)cc1
Short answer wanted: higher pKi, I or II ? Respond with the label that goes with your answer.
II
(II: 6.58, I: 6.08)

----------
target: Carbonic anhydrase 1 (Homo sapiens); test: Inhibition of recombinant human carbonic anhydrase 1 incubated for 10 mins prior to testing measured for 5 to 10 secs by phenol red-based stopped-flow CO2 hydration assay
Sequence (P00915 whole entry): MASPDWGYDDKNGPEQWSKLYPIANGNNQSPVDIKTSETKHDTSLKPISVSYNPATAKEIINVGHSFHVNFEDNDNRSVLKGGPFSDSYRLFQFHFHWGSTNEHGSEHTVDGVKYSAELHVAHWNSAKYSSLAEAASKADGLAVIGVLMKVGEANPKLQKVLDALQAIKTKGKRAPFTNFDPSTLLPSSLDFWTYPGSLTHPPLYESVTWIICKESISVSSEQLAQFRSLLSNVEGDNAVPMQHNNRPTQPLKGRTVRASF
OBSERVATION TYPE: Ki (nM)

Please review the following examples before continuing.
- MOLECULE SMILES: "NS(=O)(=O)c1ccc(-c2nnc(SCC(=O)c3cccc([N+](=O)[O-])c3)o2)cc1"
  TARGET: "Carbonic anhydrase 1 (Homo sapiens)"
  SCALE UNIT: "nM"
  Ki: 669
- MOLECULE SMILES: "NS(=O)(=O)c1ccc(-c2nnc(SCC(=O)c3ccc(Br)cc3)o2)cc1"
  TARGET: "Carbonic anhydrase 1 (Homo sapiens)"
  SCALE UNIT: "nM"
  Ki: 617
- MOLECULE SMILES: "NS(=O)(=O)c1ccc(-c2nnc(SCC(=O)Nc3cccc(Cl)c3)o2)cc1"
  TARGET: "Carbonic anhydrase 1 (Homo sapiens)"
  SCALE UNIT: "nM"
  Ki: 501
- MOLECULE SMILES: "NS(=O)(=O)c1ccc(-c2nnc(SCC(=O)c3ccc(F)cc3)o2)cc1"
  TARGET: "Carbonic anhydrase 1 (Homo sapiens)"
  SCALE UNIT: "nM"
  Ki: 744
- MOLECULE SMILES: "NS(=O)(=O)c1ccc(-c2nnc(SCC(=O)Nc3ccc([N+](=O)[O-])cc3)o2)cc1"
  TARGET: "Carbonic anhydrase 1 (Homo sapiens)"
  SCALE UNIT: "nM"
  Ki: 762

[a] COc1cccc(NC(=O)CSc2nnc(-c3ccc(S(N)(=O)=O)cc3)o2)c1
[b] COc1cccc(C(=O)CSc2nnc(-c3ccc(S(N)(=O)=O)cc3)o2)c1
Please tell me which of the two, a or b , has the higher reported Ki value. Response format: the label of the selected entry.
a

[a] NS(=O)(=O)c1ccc(-c2nnc(SCC(=O)c3cccc(Cl)c3)o2)cc1
[b] NS(=O)(=O)c1ccc(-c2nnc(SCC(=O)Nc3ccc(Cl)cc3)o2)cc1
[c] NS(=O)(=O)c1ccc(-c2nnc(SCC(=O)c3ccccc3)o2)cc1
[d] COc1ccc(C(=O)CSc2nnc(-c3ccc(S(N)(=O)=O)cc3)o2)cc1
Place the items in sequence of falling Ki. Ranked list of labels, please, in the requested order.
d, b, c, a

[a] Cc1ccc(C(=O)CSc2nnc(-c3ccc(S(N)(=O)=O)cc3)o2)cc1
[b] NS(=O)(=O)c1ccc(-c2nnc(SCC(=O)c3ccc(Cl)cc3)o2)cc1
For the pair a and b , which member has the lower Ki number? Selection: enter the item's label.
b
(b: 595 nM, a: 3320 nM)
